meta.source: ChEMBL document CHEMBL1201862

- Test system: UACC-62
- run description: NCI tumour cell line growth inhibition, 48 h
Calls of active or inactive are those of the source. No stated cut-off is given here; in the data, active = GI50 up to about 1.1 µM and inactive = higher.

[
  {
    "compound": "O=C1CN(C(=O)c2ccccc2)Cc2[nH]c3ccccc3c21",
    "GI50": "> 100 µM (inactive)"
  },
  {
    "compound": "COC1C(O)CC(OC2C(C)OC(Oc3cc(O)c4c(O)c5c(cc4c3)C[C@@H]([C@H](OC)C(=O)[C@@H](O)[C@@H](C)O)[C@H](OC3CC(OC4CC(OC6CC(C)(O)C(O)C(C)O6)C(O)C(C)O4)C(O)C(C)O3)C5=O)CC2OC(C)=O)OC1C (some centres not stated)",
    "GI50": "29.4 µM (inactive)"
  },
  {
    "compound": "O/N=N/c1ccc(Sc2ccc(/N=N/O)cn2)nc1",
    "GI50": "> 100 µM (inactive)"
  },
  {
    "compound": "Nc1nc(N)c(CCCCc2ccccc2)c(N)n1",
    "GI50": "> 100 µM (inactive)"
  },
  {
    "compound": "Cc1ccc(N2C(=O)C3C=CC(n4[nH]c(=O)n(Cc5ccccc5)c4=O)CC3C2=O)cc1 (configuration not stated)",
    "GI50": "> 100 µM (inactive)"
  },
  {
    "compound": "COc1ccc(NC(=O)CC(=O)NN)cc1",
    "GI50": "> 100 µM (inactive)"
  },
  {
    "compound": "O=c1[nH]c2ccccc2cc1C(Cl)=C(Cl)Cl",
    "GI50": "> 100 µM (inactive)"
  },
  {
    "compound": "Cc1cc(-c2cc(C(C)(C)C)c(O)c(C(C)(C)C)c2)c(C)cc1-c1cc(C(C)(C)C)c(O)c(C(C)(C)C)c1",
    "GI50": "> 100 µM (inactive)"
  },
  {
    "compound": "O=C(c1ccc(Cl)cc1)N(C(=O)N1CCC(c2ccccc2)CC1)c1ccccc1",
    "GI50": "31.8 µM (inactive)"
  },
  {
    "compound": "Cc1ccc2nc3sc(=O)sc3nc2c1 [CHINOMETHIONAT]",
    "GI50": "17.9 µM (inactive)"
  },
  {
    "compound": "O=c1onc2n1-c1cc(Cl)ccc1C(=S)N1CSCC21 (configuration not stated)",
    "GI50": "> 100 µM (inactive)"
  },
  {
    "compound": "O=C1CCC(=O)N1n1c(Cc2ccc(Cl)cc2)n[nH]c1=O",
    "GI50": "> 100 µM (inactive)"
  }
]
